Reported EC50 values for a set of compounds
Test system: rat aorta rings
Experiment: Measurement of tension in rat aorta rings (myorelaxant activity)
Type: cell-based
Conditions: KCl-contracted rat aorta rings; concentration evoking 50% inhibition of plateau phase; mean ± s.e.m. (n); read-out: Myorelaxant activity ED50
Procedure: Measurement of tension in rat aorta rings was performed according to the following procedure. Experiments were performed with aorta removed from adult fed Wistar rats (Charles River Laboratories, Belgium). A section of the thoracic aorta was cleared of adhering fat and connective tissue and was cut into transverse rings (3-4 mm long). […] Isometric contractions were measured with a force-displacement transducer. […] The relaxation response was expressed as the percentage of the contractile response to KCl. […]
reported_property: EC50 (nM)

> print(dat)
                                   compound    system.tested  reported.result
1  CC(N/C(=N\C#N)Nc1ccncc1)C(C)(C)C (centres unmarked)  rat aorta rings              350
2  CC1(C)Oc2ccc(C#N)cc2C(N2CCCC2=O)C1O (centres unmarked)  rat aorta rings              130
